So I've got a bunch of compounds here, and I need their MIC values.
Tested on: Salmonella choleraesuis ATCC 9184
One number for each entry, in mg/L.

Sample answers from the record:
{"compound": "CCCCCCCCNc1nc(C)c(CCCCCC)c(NCCOCCOCCN)n1 [PY55]", "MIC / mg/L": 7.8}
{"compound": "CCCCCCCCNc1nc(C)cc(N2CCCC2)n1 [PY44]", "MIC / mg/L": 62.5}
{"compound": "Cc1cc(NCc2ccccc2)nc(NCc2ccccc2)n1 [PY8]", "MIC / mg/L": 62.5}

Inquiry: Return MIC measured with Salmonella choleraesuis ATCC 9184 given this compound: Cc1cc(NCCc2ccccc2)nc(NCCc2ccccc2)n1 [PY9]
Reply text: 250

----------
Tested on: Staphylococcus aureus ATCC 6538
So I've got a bunch of compounds here, and I need their MIC values.
Answers are plain numbers, in µg/mL.

{"compound string": "Cc1cc(NCCc2ccccc2)nc(NCCc2ccccc2)n1", "MIC, µg/mL": 7.8}
{"compound string": "Cc1cc(NCc2ccccc2)nc(NCc2ccccc2)n1", "MIC, µg/mL": 31.2}
{"compound string": "CCCCCCCCNc1nc(C)cc(N2CCCC2)n1", "MIC, µg/mL": 7.8}

Attention now shifts to the item below.
Inquiry: Quick one: MIC for CCCCCCCCNc1nc(C)c(CCCCCC)c(NCCOCCOCCN)n1 ?
Reply text: 7.8
